I'd be grateful if you could share measured pIC50 for these entries.
target: Lanosterol 14-alpha demethylase (Homo sapiens); assay: Inhibition of human CYP51 expressed in Topp 3 cells by lanosterol demethylase assay
Remember, pIC50 is on a log scale: it is -log10 of the molar concentration.

q: Tell me pIC50 reported for Clc1ccccc1C(c1ccccc1)(c1ccccc1)n1ccnc1
a: 6.89

q: Tell me pIC50 reported for CCC(C)n1ncn(-c2ccc(N3CCN(c4ccc(OCC5COC(Cn6cncn6)(c6ccc(Cl)cc6Cl)O5)cc4)CC3)cc2)c1=O (stereo not drawn)
a: 5.44

q: Tell me pIC50 reported for O=C(N[C@@H](Cc1ccccc1)C(=O)N1CCC(O)CC1)c1cc2ccccc2[nH]1
a: 6.04

q: Tell me pIC50 reported for O=C(N[C@@H](Cc1cccnc1)C(=O)N1CCC(O)CC1)c1cc2cc(Cl)ccc2[nH]1
a: 4.59

q: Tell me pIC50 reported for O=C(N[C@@H](Cc1ccccc1)C(=O)N1CCC(O)CC1)c1cc2cc(Cl)ccc2[nH]1
a: 5.51

q: Tell me pIC50 reported for Clc1ccc(COC(Cn2ccnc2)c2ccc(Cl)cc2Cl)c(Cl)c1 (stereo not drawn)
a: 6.70

q: Tell me pIC50 reported for O=C(N[C@@H](Cc1ccccc1)C(=O)N1CCC(O)CC1)c1cc2cc(F)ccc2[nH]1
a: 4.12

q: Tell me pIC50 reported for O=C(N[C@@H](Cc1ccc(F)cc1)C(=O)N1CCC(O)CC1)c1cc2cc(Cl)ccc2[nH]1
a: 5.40

q: Tell me pIC50 reported for O=C(N[C@@H](Cc1ccc(Cl)cc1)C(=O)N1CCC(O)CC1)c1cc2cc(Cl)ccc2[nH]1
a: 5.01

q: Tell me pIC50 reported for O=C(N[C@H](Cc1ccccc1)C(=O)N1CCC(O)CC1)c1cc2cc(Cl)ccc2[nH]1
a: 4.00

###

I'd be grateful if you could share measured IC50 for these entries.
Molecular target: Lanosterol 14-alpha demethylase (Homo sapiens)
Sequence (Q16850 whole entry): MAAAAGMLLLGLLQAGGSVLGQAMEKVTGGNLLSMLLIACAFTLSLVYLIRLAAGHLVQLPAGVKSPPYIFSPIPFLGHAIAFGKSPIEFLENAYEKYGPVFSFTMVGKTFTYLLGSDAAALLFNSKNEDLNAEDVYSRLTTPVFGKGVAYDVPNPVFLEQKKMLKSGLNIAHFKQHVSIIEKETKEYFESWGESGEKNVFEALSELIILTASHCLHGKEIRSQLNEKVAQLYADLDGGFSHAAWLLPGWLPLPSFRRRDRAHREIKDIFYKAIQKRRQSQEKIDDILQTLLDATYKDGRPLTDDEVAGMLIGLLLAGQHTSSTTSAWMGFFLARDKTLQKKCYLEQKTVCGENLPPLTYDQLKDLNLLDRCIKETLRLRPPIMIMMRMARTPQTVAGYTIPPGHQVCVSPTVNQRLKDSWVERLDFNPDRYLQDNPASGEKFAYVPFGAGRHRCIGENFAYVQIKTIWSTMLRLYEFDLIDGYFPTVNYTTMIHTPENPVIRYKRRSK
Assay: Inhibition of human CYP51 expressed in Topp 3 cells by lanosterol demethylase assay
Response body: numeric value in µM, unit text excluded.

q: Tell me IC50 reported for O=C(N[C@@H](Cc1ccccc1Cl)C(=O)N1CCC(O)CC1)c1cc2cc(Cl)ccc2[nH]1
a: 0.3

q: Tell me IC50 reported for O=C(N[C@@H](Cc1ccccc1F)C(=O)N1CCC(O)CC1)c1cc2cc(Cl)ccc2[nH]1
a: 0.8

q: Tell me IC50 reported for C[C@]12CC[C@H]3[C@@H](CCC4=CC(=O)CC[C@@]43C)[C@@H]1CC[C@@H]2O
a: 50

q: Tell me IC50 reported for CC(=O)N1CCN(c2ccc(OC[C@H]3CO[C@](Cn4ccnc4)(c4ccc(Cl)cc4Cl)O3)cc2)CC1
a: 0.19

q: Tell me IC50 reported for c1ccc(-c2ccc(C(c3ccccc3)n3ccnc3)cc2)cc1 (stereo not drawn)
a: 0.342

q: Tell me IC50 reported for CC(C)N1CCN(c2ccc(OC[C@H]3CO[C@](Cn4cncn4)(c4ccc(Cl)cc4Cl)O3)cc2)CC1
a: 3

q: Tell me IC50 reported for O=C(NC1(C(=O)N2CCC(O)CC2)CCCC1)c1cc2cc(Cl)ccc2[nH]1
a: 100

q: Tell me IC50 reported for COc1ccc(C[C@H](NC(=O)c2cc3cc(Cl)ccc3[nH]2)C(=O)N2CCC(O)CC2)cc1
a: 4.5

q: Tell me IC50 reported for O=C(N[C@@H](Cc1c[nH]cn1)C(=O)N1CCC(O)CC1)c1cc2cc(Cl)ccc2[nH]1
a: 1.3

q: Tell me IC50 reported for O=C(N[C@@H](Cc1ccc(O)cc1)C(=O)N1CCC(O)CC1)c1cc2cc(Cl)ccc2[nH]1
a: 2.5

###

I'd be grateful if you could share measured pIC50 for these entries.
target: Lanosterol 14-alpha demethylase (Homo sapiens); experiment: Inhibition of human CYP51 expressed in Topp 3 cells by lanosterol demethylase assay
Remember, pIC50 is on a log scale: it is -log10 of the molar concentration.

q: Tell me pIC50 reported for CO[C@H]1/C=C/O[C@@]2(C)Oc3c(C)c(O)c4c(O)c(c(/C=N/N5CCN(C)CC5)c(O)c4c3C2=O)NC(=O)/C(C)=C\C=C\[C@H](C)[C@H](O)[C@@H](C)[C@@H](O)[C@@H](C)[C@H](OC(C)=O)[C@@H]1C
a: 4.52

q: Tell me pIC50 reported for Cc1cccc(N(C)C(=S)Oc2ccc3ccccc3c2)c1 [TOLNAFTATE]
a: 4.30

q: Tell me pIC50 reported for Clc1ccc(COC(Cn2ccnc2)c2ccc(Cl)cc2Cl)cc1 (configuration not stated)
a: 7.30

q: Tell me pIC50 reported for COC1=CC(=O)C[C@@H](C)[C@]12Oc1c(Cl)c(OC)cc(OC)c1C2=O
a: 4.30

###

biological target: UniProt:Q16850; experiment: Inhibition of human CYP51 expressed in Topp 3 cells by lanosterol demethylase assay
pIC50: −log10 of the molar value.
I'd be grateful if you could share measured pIC50 for these entries.

q: Tell me pIC50 reported for O=C1C(CC[S+]([O-])c2ccccc2)C(=O)N(c2ccccc2)N1c1ccccc1 (stereo not drawn)
a: < 3.70

q: Tell me pIC50 reported for c1ccc2[nH]cnc2c1
a: < 3.70

q: Tell me pIC50 reported for Nc1ccc(S(=O)(=O)Nc2ccnn2-c2ccccc2)cc1
a: < 3.70

q: Tell me pIC50 reported for CC(C)CCC[C@@H](C)[C@H]1CC[C@H]2[C@@H]3CC=C4C[C@@H](O)CC[C@]4(C)[C@H]3CC[C@]12C
a: < 3.70

q: Tell me pIC50 reported for CCCCC/C=C\C/C=C\C/C=C\C/C=C\CCCC(=O)O
a: < 3.70

q: Tell me pIC50 reported for CC[C@H](C)C(=O)O[C@H]1C[C@@H](C)C=C2C=C[C@H](C)[C@H](CC[C@@H]3C[C@@H](O)CC(=O)O3)[C@H]21
a: < 3.70

q: Tell me pIC50 reported for O=C(N[C@@H](Cc1ccccc1)C(=O)N1CCC(O)CC1)c1cc2c([nH]1)CCCC2
a: < 3.70

q: Tell me pIC50 reported for O=C(NC(Cc1ccccc1)C(=O)O)c1cc2cc(Cl)ccc2[nH]1 (stereo not drawn)
a: < 3.70

###

molecular target: Lanosterol 14-alpha demethylase (Homo sapiens); test: Inhibition of human CYP51 expressed in Topp 3 cells by lanosterol demethylase assay
I'd be grateful if you could share measured IC50 for these entries.

q: Tell me IC50 reported for Clc1ccc(C2(Cn3cncn3)OCCO2)c(Cl)c1
a: > 10 µM

q: Tell me IC50 reported for Cn1cc[nH]c1=S
a: > 200 µM

q: Tell me IC50 reported for O=C(NC(Cc1ccccc1)C(=O)N1CCC(O)CC1)c1ccc[nH]1 (stereo not drawn)
a: > 200 µM

q: Tell me IC50 reported for Cc1ncc([N+](=O)[O-])n1CCO
a: > 200 µM

q: Tell me IC50 reported for OC(c1ccccc1)(c1cncnc1)c1ccc(Cl)cc1Cl (stereo not drawn)
a: > 10 µM

q: Tell me IC50 reported for CC(=O)[C@H]1CC[C@H]2[C@@H]3CCC4=CC(=O)CC[C@]4(C)[C@H]3CC[C@]12C
a: > 200 µM

q: Tell me IC50 reported for CC(=O)[C@H]1CC[C@H]2[C@@H]3CC=C4C[C@@H](O)CC[C@]4(C)[C@H]3CC[C@]12C
a: > 200 µM

q: Tell me IC50 reported for CCCNC(=O)NS(=O)(=O)c1ccc(Cl)cc1 [CHLORPROPAMIDE]
a: > 200 µM

###

I'd be grateful if you could share measured pIC50 for these entries.
Target: Lanosterol 14-alpha demethylase (Homo sapiens, UniProt Q16850)
Sequence (Q16850 whole entry): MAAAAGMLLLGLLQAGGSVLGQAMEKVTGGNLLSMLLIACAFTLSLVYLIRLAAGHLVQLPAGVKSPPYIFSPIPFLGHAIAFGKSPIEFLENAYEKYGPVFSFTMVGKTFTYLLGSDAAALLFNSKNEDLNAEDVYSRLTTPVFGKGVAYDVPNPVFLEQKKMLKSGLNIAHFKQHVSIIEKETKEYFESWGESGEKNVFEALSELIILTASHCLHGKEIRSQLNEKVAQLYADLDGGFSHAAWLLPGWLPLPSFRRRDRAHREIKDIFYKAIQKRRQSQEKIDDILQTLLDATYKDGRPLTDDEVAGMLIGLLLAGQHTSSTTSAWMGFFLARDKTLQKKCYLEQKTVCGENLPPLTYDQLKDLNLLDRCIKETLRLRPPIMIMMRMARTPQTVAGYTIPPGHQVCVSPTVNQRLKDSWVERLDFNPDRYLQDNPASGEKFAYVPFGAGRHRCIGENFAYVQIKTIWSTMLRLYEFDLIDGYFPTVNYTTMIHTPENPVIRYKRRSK
Assay: Inhibition of human CYP51 expressed in Topp 3 cells by lanosterol demethylase assay
pIC50: −log10 of the molar value.

q: Give pIC50 for this entry on Lanosterol 14-alpha demethylase (Homo sapiens, UniProt Q16850): CCCCC/C=C\C/C=C\C/C=C\C/C=C\CCCC(=O)NCCO [ANANDAMIDE]
a: < 3.70

q: Give pIC50 for this entry on Lanosterol 14-alpha demethylase (Homo sapiens, UniProt Q16850): CC[C@H]1OC(=O)[C@H](C)[C@@H](O[C@H]2C[C@@](C)(OC)[C@@H](O)[C@H](C)O2)[C@H](C)[C@@H](O[C@@H]2O[C@H](C)C[C@H](N(C)C)[C@H]2O)[C@](C)(O)C[C@@H](C)C(=O)[C@H](C)[C@@H](O)[C@]1(C)O [ERYTHROMYCIN]
a: < 3.70

q: Give pIC50 for this entry on Lanosterol 14-alpha demethylase (Homo sapiens, UniProt Q16850): CCCCNC(=O)NS(=O)(=O)c1ccc(C)cc1 [TOLBUTAMIDE]
a: < 3.70
